Record form. Attribute: pIC50. Fill in for each entry.
assay: Inhibition of pig brain CK1 delta/epsilon using RRKHAAIGpSAYSITA as substrate; parameters: species or system Sus scrofa
pIC50: −log10 of the molar value.

// solved cases for pIC50 follow
MOLECULE	RESULT
CN1C(=O)/C(=C/c2ccc3c(c2)OCO3)N=C1Nc1ccc2c(c1)OCCO2	< 5.00
CN1C(=O)/C(=C/c2ccc3c(c2)OCO3)N=C1N [LEUCETTAMINE B]	< 5.00

Now look at this one.
## Task pIC50 lookup needed for CN1C(=O)/C(=C/c2ccc3c(c2)OCO3)N=C1NCC1CC1 , thanks.
## Result < 5.00

---

Record form. Attribute: pIC50. Fill in for each entry.
target: Dual specificity tyrosine-phosphorylation-regulated kinase 1A (Rattus norvegicus); assay: Inhibition of rat recombinant GST-tagged DYRK1A using KKISGRLSPIMTEQ as substrate and [gamma32]-ATP after 30 mins by scintillation counting
One number for each entry, as −log10 of the molar value.

MOLECULE_SMILES	READOUT	QUANTITATIVE_READOUT
CCCNC1=N/C(=C\c2ccc3c(c2)OCO3)C(=O)N1	pIC50	6.62
O=C1NC(NCC2CC2)=N/C1=C\c1ccc2c(c1)OCO2	pIC50	7.00
O=C1NC(Nc2ccc(O)cc2)=N/C1=C\c1ccc2c(c1)OCO2	pIC50	7.02
CNC1=N/C(=C\c2ccc3c(c2)OCO3)C(=O)N1C	pIC50	5.68

## Task pIC50 lookup needed for CN1C(=O)/C(=C/c2ccc3c(c2)OCO3)N=C1N , thanks.
## Result 5.55

---

molecular target: Dual specificity tyrosine-phosphorylation-regulated kinase 1A (Rattus norvegicus, UniProt Q63470); assay: Inhibition of rat recombinant GST-tagged DYRK1A using KKISGRLSPIMTEQ as substrate and [gamma32]-ATP after 30 mins by scintillation counting
Could you please classify the records by IC50 using these ranges: low band = under 400 nM, middle band = from 400 nM up to 600 nM, high band = 600 nM and over

MOLECULE_SMILES	ANSWER_LABEL
O=C1NC(Nc2ccc3c(c2)OCCO3)=N/C1=C\c1ccc2c(c1)OCO2	low band
C=CCNC1=N/C(=C\c2ccc3c(c2)OCO3)C(=O)N1C	middle band
CN1C(=O)/C(=C/c2ccc3c(c2)OCO3)N=C1Nc1ccccc1	low band
CN1C(=O)/C(=C/c2ccc3c(c2)OCO3)N=C1NCCCCCO	high band

## Task Any idea which band CN1C(=O)/C(=C/c2ccc3c(c2)OCO3)N=C1NCCN is in?
## Result high band

## Task Any idea which band CN1C(=O)/C(=C/c2ccc3c(c2)OCO3)N=C1NCCN1CCOCC1 is in?
## Result high band

## Task Any idea which band COCCNC1=N/C(=C\c2ccc3c(c2)OCO3)C(=O)N1C is in?
## Result middle band

## Task Any idea which band CN1C(=O)/C(=C/c2ccc3c(c2)OCO3)N=C1Nc1ccc2c(c1)OCCO2 is in?
## Result low band

---

biological target: UniProt P22518; assay: Inhibition of mouse recombinant GST-tagged CLK1 using GRSRSRSRSRSR as substrate
Sequence (P22518 whole entry): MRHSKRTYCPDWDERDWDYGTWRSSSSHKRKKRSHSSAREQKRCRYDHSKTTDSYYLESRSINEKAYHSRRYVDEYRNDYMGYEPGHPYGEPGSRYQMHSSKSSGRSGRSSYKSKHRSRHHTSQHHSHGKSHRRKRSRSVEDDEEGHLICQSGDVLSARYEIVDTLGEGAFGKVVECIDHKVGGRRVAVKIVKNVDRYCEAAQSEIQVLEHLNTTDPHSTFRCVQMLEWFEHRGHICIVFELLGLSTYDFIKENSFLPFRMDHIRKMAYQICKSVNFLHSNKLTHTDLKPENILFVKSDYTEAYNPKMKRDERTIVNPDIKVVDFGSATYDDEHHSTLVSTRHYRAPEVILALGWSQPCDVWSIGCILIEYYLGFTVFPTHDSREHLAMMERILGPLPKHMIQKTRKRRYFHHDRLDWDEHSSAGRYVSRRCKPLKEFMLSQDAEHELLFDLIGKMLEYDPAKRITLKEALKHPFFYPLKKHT
Record form. Attribute: pIC50. Fill in for each entry.
One number for each entry, as −log10 of the molar value.

// solved cases for pIC50 follow
MOLECULE_SMILES	TARGET	pIC50
CN1C(=O)/C(=C/c2ccc3c(c2)OCO3)N=C1Nc1ccc2c(c1)OCO2	UniProt P22518	6.80
CC(=O)NC1=N/C(=C\c2ccc3c(c2)OCO3)C(=O)N1C	UniProt P22518	5.62
O=C1NC(Nc2ccc3c(c2)OCCO3)=N/C1=C\c1ccc2c(c1)OCO2	UniProt P22518	6.49
O=C1NC(NCC2CC2)=N/C1=C\c1ccc2c(c1)OCO2	UniProt P22518	7.08
CN1C(=O)/C(=C/c2ccc3c(c2)OCO3)N=C1NCc1ccccc1	UniProt P22518	6.70

State the recorded pIC50 for every item in the following list.
1. CC(C)NC1=N/C(=C\c2ccc3c(c2)OCO3)C(=O)N1C
2. O=C1NC(Nc2ccc3c(c2)OCO3)=N/C1=C\c1ccc2c(c1)OCO2
3. CN1C(=O)/C(=C/c2ccc3c(c2)OCO3)N=C1NCCCO
4. CC(C)CCNC1=N/C(=C\c2ccc3c(c2)OCO3)C(=O)N1C

## Result
1: 6.59; 2: 6.77; 3: 6.63; 4: 6.80

---

Record form. Attribute: pIC50. Fill in for each entry.
Molecular target: Dual specificity tyrosine-phosphorylation-regulated kinase 2 (Homo sapiens)
Sequence (Q92630 whole entry): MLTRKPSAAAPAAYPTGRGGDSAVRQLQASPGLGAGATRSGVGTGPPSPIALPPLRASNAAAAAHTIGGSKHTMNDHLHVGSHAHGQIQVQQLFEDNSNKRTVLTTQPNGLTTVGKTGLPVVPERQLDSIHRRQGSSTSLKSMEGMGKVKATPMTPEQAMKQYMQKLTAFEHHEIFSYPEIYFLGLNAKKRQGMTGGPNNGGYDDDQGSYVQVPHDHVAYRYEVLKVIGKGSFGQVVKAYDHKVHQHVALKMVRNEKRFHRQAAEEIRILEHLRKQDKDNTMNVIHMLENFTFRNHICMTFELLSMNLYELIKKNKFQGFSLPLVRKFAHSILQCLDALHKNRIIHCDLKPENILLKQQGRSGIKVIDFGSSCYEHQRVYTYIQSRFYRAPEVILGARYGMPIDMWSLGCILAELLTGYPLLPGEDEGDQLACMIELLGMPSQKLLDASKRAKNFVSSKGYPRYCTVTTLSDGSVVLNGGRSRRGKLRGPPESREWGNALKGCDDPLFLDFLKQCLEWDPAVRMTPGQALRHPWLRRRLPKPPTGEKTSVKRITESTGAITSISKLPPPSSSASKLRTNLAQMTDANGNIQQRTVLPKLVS
Experiment: Inhibition of human recombinant GST-tagged DYRK2 using KKISGRLSPIMTEQ as substrate and [gamma32]-ATP after 30 mins by scintillation counting
One number for each entry, as −log10 of the molar value.

// solved cases for pIC50 follow
MOLECULE_SMILES	pIC50
CN1C(=O)/C(=C/c2ccc3c(c2)OCO3)N=C1NCCN1CCOCC1	5.80
COc1ccc(NC2=N/C(=C\c3ccc4c(c3)OCO4)C(=O)N2)cc1	7.10
CCCNC1=N/C(=C\c2ccc3c(c2)OCO3)C(=O)N1CCC	5.68

State the recorded pIC50 for every item in the following list.
1. CCNC1=N/C(=C\c2ccc3c(c2)OCO3)C(=O)N1
2. CN1C(=O)/C(=C/c2ccc3c(c2)OCO3)N=C1NCc1ccccc1
3. O=C1NC(Nc2ccc3c(c2)OCO3)=N/C1=C\c1ccc2c(c1)OCO2
4. Cc1ccc(NC2=N/C(=C\c3ccc4c(c3)OCO4)C(=O)N2)cc1
5. CN1C(=O)/C(=C/c2ccc3c(c2)OCO3)N=C1Nc1ccc2c(c1)OCO2
6. CCOC(=O)C(=O)NC1=N/C(=C\c2ccc3c(c2)OCO3)C(=O)N1C

## Result
1: 6.80; 2: 6.25; 3: 7.40; 4: 7.21; 5: 7.00; 6: 5.19

---

biological target: Serine/threonine-protein kinase pim-1 (Homo sapiens); test: Inhibition of human recombinant Pim1
Sequence (P11309 whole entry): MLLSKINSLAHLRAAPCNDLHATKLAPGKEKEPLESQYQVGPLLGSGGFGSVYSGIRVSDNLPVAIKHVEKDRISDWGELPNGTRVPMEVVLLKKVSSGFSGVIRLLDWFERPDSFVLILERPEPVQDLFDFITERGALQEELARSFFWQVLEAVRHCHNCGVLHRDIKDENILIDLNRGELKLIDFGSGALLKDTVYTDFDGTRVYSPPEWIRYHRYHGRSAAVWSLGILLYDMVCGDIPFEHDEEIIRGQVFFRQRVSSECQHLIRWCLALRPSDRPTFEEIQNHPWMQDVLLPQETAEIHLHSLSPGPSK
I'd appreciate it if you marked entries t when IC50 is lower than 4 µM and f when it is not.

## Task Dear colleague, could you confirm whether IC50 of CN1C(=O)/C(=C/c2ccc3c(c2)OCO3)N=C1NC1CCCC1 falls below 4 µM? Thanks.
## Result t

---

Record form. Attribute: pIC50. Fill in for each entry.
biological target: Dual specificity tyrosine-phosphorylation-regulated kinase 2 (Homo sapiens, UniProt Q92630); assay: Inhibition of human recombinant GST-tagged DYRK2 using KKISGRLSPIMTEQ as substrate and [gamma32]-ATP after 30 mins by scintillation counting
Numbers only, as −log10 of the molar value.

// solved cases for pIC50 follow
MOLECULE_SMILES	pIC50
CCNC1=N/C(=C\c2ccc3c(c2)OCO3)C(=O)N1C	6.19
CN1C(=O)/C(=C/c2ccc3c(c2)OCO3)N=C1NCC1CC1	6.47
CN1C(=O)/C(=C/c2ccc3c(c2)OCO3)N=C1NC1CCCC1	5.22
CN1C(=O)/C(=C/c2ccc3c(c2)OCO3)N=C1NCc1ccc2c(c1)OCO2	5.48
CCCNC1=N/C(=C\c2ccc3c(c2)OCO3)C(=O)N1	6.92
CCCNC1=N/C(=C\c2ccc3c(c2)OCO3)C(=O)N1C	6.26

State the recorded pIC50 for every item in the following list.
1. CN1C(=O)/C(=C/c2ccc3c(c2)OCO3)N=C1Nc1ccccc1
2. O=C1NC(Nc2ccc3c(c2)OCCO3)=N/C1=C\c1ccc2c(c1)OCO2
3. CN1C(=O)/C(=C/c2ccc3c(c2)OCO3)N=C1NCCO

## Result
1. 6.34
2. 6.96
3. 5.00

State the recorded pIC50 for every item in the following list.
1. O=C1NC(Nc2ccc(O)cc2)=N/C1=C\c1ccc2c(c1)OCO2
2. CN1C(=O)/C(=C/c2ccc3c(c2)OCO3)N=C1NCCN

## Result
[7.22, 6.15]
